Would you kindly list IC50 for each of these compounds?
Target: Gag-Pol polyprotein (Human immunodeficiency virus type 1 group M subtype B (isolate HXB2), UniProt P04585)
Assay: HIV-1 RT Activity Assay
Conditions: pH 7.8; 37 °C

Please give the documented IC50 of COc1ccc2nc(N3C(=O)CSC3c3c(Cl)cccc3Cl)sc2c1 (stereo not given)
> 40 µM

Please give the documented IC50 of COc1cccc2sc(N3C(=O)CSC3c3c(Cl)cccc3Cl)nc12 (stereo not given)
3 µM

Please give the documented IC50 of O=C1CSC(c2c(F)cccc2F)N1c1nc2ccccc2s1 (stereo not given)
> 40 µM

Please give the documented IC50 of COc1ccc2nc(N3C(=O)CSC3c3c(F)cccc3Cl)sc2c1 (stereo not given)
> 40 µM

Please give the documented IC50 of COc1ccc2nc(N3C(=O)CSC3c3c(F)cccc3F)sc2c1 (stereo not given)
> 40 µM

Please give the documented IC50 of CCOc1ccc2nc(N3C(=O)CSC3c3c(F)cccc3F)sc2c1 (stereo not given)
> 40 µM

Please give the documented IC50 of O=C1CSC(c2c(Cl)cccc2Cl)N1c1nc2ccc(F)cc2s1 (stereo not given)
0.25 µM

Please give the documented IC50 of COc1cccc2sc(N3C(=O)CSC3c3c(F)cccc3Cl)nc12 (stereo not given)
> 40 µM

Please give the documented IC50 of O=C1CSC(c2c(F)cccc2Cl)N1c1nc2ccccc2s1 (stereo not given)
> 40 µM

Please give the documented IC50 of O=C1CSC(c2c(F)cccc2F)N1c1nc2c(Cl)cccc2s1 (stereo not given)
> 40 µM

Please give the documented IC50 of CCOc1ccc2nc(N3C(=O)CSC3c3c(F)cccc3Cl)sc2c1 (stereo not given)
3.4 µM

Please give the documented IC50 of O=C1CSC(c2c(F)cccc2Cl)N1c1nc2c(Cl)cccc2s1 (stereo not given)
0.04 µM

Please give the documented IC50 of O=C1CSC(c2c(Cl)cccc2Cl)N1c1nc2c(Cl)cccc2s1 (stereo not given)
> 40 µM

Please give the documented IC50 of O=C1CSC(c2c(Cl)cccc2Cl)N1c1nc2ccc(Cl)cc2s1 (stereo not given)
> 40 µM

Please give the documented IC50 of O=C1CSC(c2c(F)cccc2Cl)N1c1nc2ccc(Cl)cc2s1 (stereo not given)
> 40 µM
